# MEASUREMENT TARGET: Calmodulin-1 (Homo sapiens) (UniProt P0DP23)
# ASSAY NOTES: calcium-bound CALM1 binders on microarrays, profiling panel, artefact control for SMM control-protein annotation, biochemical, small-molecule microarray, Cy5-labelled CALM1, plus calcium (AID 1112);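 note: score merges spot fluorescence with signal to noise from triplicate slides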
# ASSAY CONDITIONS: Cy5-CALM1 binding fluorescence, higher = more signal

- MOLECULE: "C=CCNC(=O)[C@H]1[C@@H]2C(=O)O[C@@H](c3ccccc3)[C@@H](c3ccccc3)N2[C@@H](c2ccccc2OCCO)[C@]12C(=O)N(C(=O)OCCOC)c1ccc(C#CCCO)cc12"
  composite z-score: 1.08
- MOLECULE: "O=C(O)[C@H]1C[C@H]2C(=O)N[C@@H](Cc3ccccc3)C(=O)N2[C@H]1c1ccc(O)cc1"
  composite z-score: 0.504
- MOLECULE: "C=C1C=C(Br)C2(OCCCO2)[C@H]2OC12 (some centres undefined)"
  composite z-score: -0.755
- MOLECULE: "COc1ccc(/C=C/C(=O)c2cccc(OCC(=O)OC(C)(C)C)c2)cc1"
  composite z-score: -0.159
